Recorded melting point by entry

Examples with their reported melting point follow.
Requested read-out: melting point. Entry: "O=C(/C=C/c1ccccc1)N/C(=C\c1ccccc1)C(=O)NCCO"
204 °C

Another: "O=C(C=Cc1ccccc1)N/C(=C\c1ccccc1)C(=O)NC1CCCC1"
239 °C

Another: "O=C(/C=C/c1ccccc1)N/C(=C\c1ccccc1)C(=O)Nc1cccnc1"
> 250 °C (dec.)

Then this compound:
Requested read-out: melting point. Entry: CCOC(=O)/C(=C/c1ccccc1)NC(=O)C=Cc1ccccc1 [Compound 15EE, Ethyl (Z)-2-cinnamamido-3-phenylacrylate]
153 °C

====

# Tested on: HT-29 cells
# assay_protocol: SRB cytotoxicity assay, HT-29
# Assay type: cell-based, human
# stated_conditions: monolayer, 72 h exposure, ± SEM
Recorded pIC50 by entry
pIC50 field: float, defined as -log10 of concentration (mol/L).

Examples with their reported pIC50 follow.
Recorded pIC50 for CCCNC(=O)/C(=C/c1ccc(O)c(OC)c1)NC(=O)/C=C/c1ccc(C)cc1 [Compound 3512] with HT-29 cells, please?
4.82

Another: CCCNC(=O)/C(=C/c1ccc(F)cc1)NC(=O)/C=C/c1cccs1 [Compound 2612]
5.11

New cases:
Recorded pIC50 for CCCNC(=O)/C(=C/c1ccccc1)NC(=O)/C=C/c1ccc(C)cc1 [Compound 2012] with HT-29 cells, please?
4.27

Another: CCCNC(=O)/C(=C/c1c[nH]c2ccccc12)NC(=O)/C=C/c1cccs1 [Compound 4112]
5.78

Another: CCCNC(=O)/C(=C/c1ccc(O)c(OC)c1)NC(=O)/C=C/c1cccs1 [Compound 3612]
4.32

Another: CCCNC(=O)/C(=C/c1ccc(N(C)C)cc1)NC(=O)/C=C/c1cccs1 [Compound 3112]
4.18
